# measurementProtocol: Compound was evaluated for its binding affinity against Cannabinoid receptor 1 in Guinea pig ileum (GPI) using [3H]SR-141,716A ligand at site 1
assayEndpoint: pKi
The scale used: pKi is minus the common logarithm of the concentration in molar units.

So for C1=C(CCN2CCOCC2)c2ccccc2/C1=C/c1cccc2ccccc12 , the logged pKi turned out to be 7.96

* * *

# measurementProtocol: Compound was evaluated for its binding affinity against Cannabinoid receptor 1 in Guinea pig ileum (GPI) using [3H]SR-141,716A ligand at site 2
assayEndpoint: Ki

So for C1=C(CCN2CCOCC2)c2ccccc2/C1=C/c1cccc2ccccc12 , the logged Ki turned out to be 611 nM

* * *

Quick reference for Ki among some molecules
# measurementProtocol: Compound was evaluated for its binding affinity against Cannabinoid receptor 1 in Guinea pig ileum (GPI) using [3H]CP-55940 ligand
Value expressed in nM; do not type the unit.

{"inputSmiles": "C1=C(CCN2CCOCC2)c2ccccc2/C1=C\\c1cccc2ccccc12", "Ki (nM)": 148}

Turning to the following molecule.
So for C1=C(CCN2CCOCC2)c2ccccc2/C1=C/c1cccc2ccccc12 , the logged Ki turned out to be 2.7
